Exercise: for every item that follows, state its recorded pIC50.
system: PC-3; assay: Cytotoxicity against human PC3 assessed as inhibition of cell growth incubated for 48 hrs by resazurin reduction test; type: functional, cell-based; conditions: PC-3, 48 h
Conceptually, pIC50 converts a concentration in mol/L into minus its log10.

Q) Provide pIC50, tested on PC-3, for CC(=O)OC[C@H]1O[C@@H](Oc2ccc(NC(=O)CNC(=O)CCCc3ccc(N(CCCl)CCCl)cc3)cc2)[C@H](F)[C@@H](OC(C)=O)[C@@H]1OC(C)=O .
A) 5.15

Q) Under PC-3: report pIC50 of CC(=O)OC[C@H]1O[C@@H](OC(=O)Nc2ccc(NC(=O)CNC(=O)CCCc3ccc(N(CCCl)CCCl)cc3)cc2)[C@H](F)[C@@H](OC(C)=O)[C@@H]1OC(C)=O .
A) 5.31

Q) # assay system PC-3: give pIC50 of CC(=O)OC[C@H]1O[C@@H](OC(=O)c2ccc(NC(=O)CCCc3ccc(N(CCCl)CCCl)cc3)cc2)[C@H](F)[C@@H](OC(C)=O)[C@@H]1OC(C)=O
A) 5.40

###

system: A549; assay: Cytotoxicity against human A549 assessed as inhibition of cell growth incubated for 48 hrs by resazurin reduction test; type: functional, cell-based; settings: A549, 48 h
property-name: pIC50
Remember the convention: pIC50 equals -log10 of concentration in molar.

Q) Respond only with pIC50 recorded for CC(=O)OC[C@H]1O[C@@H](NC(=O)COC(=O)CCCc2ccc(N(CCCl)CCCl)cc2)[C@H](F)[C@@H](OC(C)=O)[C@@H]1OC(C)=O
A) 4.82

Q) Assign pIC50 to the following record: CC(=O)OC[C@H]1O[C@@H](OC(=O)Nc2ccc(NC(=O)CCCc3ccc(N(CCCl)CCCl)cc3)cc2)[C@H](F)[C@@H](OC(C)=O)[C@@H]1OC(C)=O
A) 5.70

Q) Give the measured pIC50 for CC(=O)OC[C@H]1O[C@@H](OC(=O)NCC(=O)Nc2ccc(OC(=O)CCCc3ccc(N(CCCl)CCCl)cc3)cc2)[C@H](F)[C@@H](OC(C)=O)[C@@H]1OC(C)=O
A) 4.41

Q) Read the entry CC(=O)OC[C@H]1O[C@@H](Oc2ccc(NC(=O)c3ccc(NC(=O)CCCc4ccc(N(CCCl)CCCl)cc4)cc3)cc2)[C@H](F)[C@@H](OC(C)=O)[C@@H]1OC(C)=O and write its reported pIC50.
A) 5.22

Q) Given CC(=O)OC[C@H]1O[C@@H](NC(=O)c2ccc(NC(=O)CNC(=O)CCCc3ccc(N(CCCl)CCCl)cc3)cc2)[C@H](F)[C@@H](OC(C)=O)[C@@H]1OC(C)=O , respond with its pIC50.
A) 4.52

Q) State, in one line, measured pIC50 of CC(=O)OC[C@H]1O[C@@H](OC(=O)NCC(=O)Nc2ccc(NC(=O)CCCc3ccc(N(CCCl)CCCl)cc3)cc2)[C@H](F)[C@@H](OC(C)=O)[C@@H]1OC(C)=O
A) 4.89

Q) Give reported pIC50 value for CC(=O)OC[C@H]1O[C@@H](OC(=O)Nc2ccc(NC(=O)CNC(=O)CCCc3ccc(N(CCCl)CCCl)cc3)cc2)[C@H](F)[C@@H](OC(C)=O)[C@@H]1OC(C)=O
A) 5.05

###

test system: A549; assay: Cytotoxicity against human A549 assessed as inhibition of cell growth incubated for 48 hrs by resazurin reduction test; assay type: functional, cell-based; conditions: A549, 48 h
property-name: IC50

Q) Quote IC50 reported for CC(=O)OC[C@H]1O[C@@H](Oc2ccc(NC(=O)COC(=O)CCCc3ccc(N(CCCl)CCCl)cc3)cc2)[C@H](F)[C@@H](OC(C)=O)[C@@H]1OC(C)=O please.
A) 39 µM

Q) State its IC50: CC(=O)OC[C@H]1O[C@@H](Oc2ccc(NC(=O)CNC(=O)CNC(=O)CCCc3ccc(N(CCCl)CCCl)cc3)cc2)[C@H](F)[C@@H](OC(C)=O)[C@@H]1OC(C)=O
A) > 50 µM

Q) Fill in IC50 for record CC(=O)OC[C@H]1O[C@@H](OC(=O)Nc2ccc(OC(=O)CCCc3ccc(N(CCCl)CCCl)cc3)cc2)[C@H](F)[C@@H](OC(C)=O)[C@@H]1OC(C)=O
A) 22 µM

Q) Write down IC50 measured for item CC(=O)OC[C@H]1O[C@@H](NC(=O)c2ccc(OC(=O)CCCc3ccc(N(CCCl)CCCl)cc3)cc2)[C@H](F)[C@@H](OC(C)=O)[C@@H]1OC(C)=O
A) 19 µM

Q) Supply IC50 value. Item: CC(=O)OC[C@H]1O[C@@H](NC(=O)CC(=O)NCCCc2ccc(N(CCCl)CCCl)cc2)[C@H](F)[C@@H](OC(C)=O)[C@@H]1OC(C)=O
A) 8 µM

Q) Name the recorded IC50 of the compound listed here: CC(=O)OC[C@H]1O[C@@H](OC(=O)c2ccc(NC(=O)CCCc3ccc(N(CCCl)CCCl)cc3)cc2)[C@H](F)[C@@H](OC(C)=O)[C@@H]1OC(C)=O
A) 1.7 µM

###

system: M4Beu cell line; test: Cytotoxicity against human M4Beu assessed as inhibition of cell growth incubated for 48 hrs by resazurin reduction test; type: functional, cell-based
property-name: pIC50
Expect pIC50 as a plain number equal to -log10 of the molar concentration.

Q) Indicate the recorded pIC50 value for this compound: CC(=O)OC[C@H]1O[C@@H](NC(=O)CC(=O)NCCCc2ccc(N(CCCl)CCCl)cc2)[C@H](F)[C@@H](OC(C)=O)[C@@H]1OC(C)=O
A) 4.92

Q) Please give measured pIC50 of the following entry: CC(=O)OC[C@H]1O[C@@H](NC(=O)c2ccc(NC(=O)CNC(=O)CCCc3ccc(N(CCCl)CCCl)cc3)cc2)[C@H](F)[C@@H](OC(C)=O)[C@@H]1OC(C)=O
A) 4.75

Q) // fetch pIC50 given entry CC(=O)OC[C@H]1O[C@@H](Oc2ccc(NC(=O)CC(=O)NCCCc3ccc(N(CCCl)CCCl)cc3)cc2)[C@H](F)[C@@H](OC(C)=O)[C@@H]1OC(C)=O
A) 4.86

Q) Give pIC50 for the following compound: CC(=O)OC[C@H]1O[C@@H](OC(=O)NCC(=O)Nc2ccc(OC(=O)CCCc3ccc(N(CCCl)CCCl)cc3)cc2)[C@H](F)[C@@H](OC(C)=O)[C@@H]1OC(C)=O
A) 4.52

###

tested on: M4Beu cell line; assay: Cytotoxicity against human M4Beu assessed as inhibition of cell growth incubated for 48 hrs by resazurin reduction test; assay type: functional, cell-based
pIC50: −log10 of the molar value.
property-name: pIC50

Q) Consider the compound CC(=O)OC[C@H]1O[C@@H](NC(=O)COC(=O)CCCc2ccc(N(CCCl)CCCl)cc2)[C@H](F)[C@@H](OC(C)=O)[C@@H]1OC(C)=O . State its measured pIC50.
A) < 4.30

Q) Please list pIC50 recorded for the compound CC(=O)OC[C@H]1O[C@@H](OC(=O)NCC(=O)Nc2ccc(NC(=O)CCCc3ccc(N(CCCl)CCCl)cc3)cc2)[C@H](F)[C@@H](OC(C)=O)[C@@H]1OC(C)=O
A) 4.74

Q) Return pIC50 for the following compound: CC(=O)OC[C@H]1O[C@@H](NC(=O)c2ccc(OC(=O)CCCc3ccc(N(CCCl)CCCl)cc3)cc2)[C@H](F)[C@@H](OC(C)=O)[C@@H]1OC(C)=O
A) < 4.30

###

system: PC-3; assay: Cytotoxicity against human PC3 assessed as inhibition of cell growth incubated for 48 hrs by resazurin reduction test; type: functional, cell-based; details: PC-3, 48 h
Field: pIC50. Provide a value for each of the molecules that follow.
pIC50 is a log-scale quantity: -log10 of the concentration expressed in molar.

Q) Check the records and state pIC50 for CC(=O)OC[C@H]1O[C@@H](Oc2ccc(NC(=O)c3ccc(NC(=O)CCCc4ccc(N(CCCl)CCCl)cc4)cc3)cc2)[C@H](F)[C@@H](OC(C)=O)[C@@H]1OC(C)=O
A) 5.68

Q) Return reported pIC50. Input molecule: CC(=O)OC[C@H]1O[C@@H](Oc2ccc(NC(=O)CNC(=O)CNC(=O)CCCc3ccc(N(CCCl)CCCl)cc3)cc2)[C@H](F)[C@@H](OC(C)=O)[C@@H]1OC(C)=O
A) 4.70

###

test system: PC-3; assay: Cytotoxicity against human PC3 assessed as inhibition of cell growth incubated for 48 hrs by resazurin reduction test; type: functional, cell-based; settings: PC-3, 48 h
Could you please report measured pIC50 for the items listed next?
pIC50 here is simply -log10 of the concentration when that concentration is written in mol/L.

Q) Write down the reported pIC50 (system: PC-3) of CC(=O)OC[C@H]1O[C@@H](OC(=O)Nc2ccc(NC(=O)CCCc3ccc(N(CCCl)CCCl)cc3)cc2)[C@H](F)[C@@H](OC(C)=O)[C@@H]1OC(C)=O
A) 5.44

Q) Name the recorded pIC50 of CC(=O)OC[C@H]1O[C@@H](OC(=O)NCC(=O)Nc2ccc(NC(=O)CCCc3ccc(N(CCCl)CCCl)cc3)cc2)[C@H](F)[C@@H](OC(C)=O)[C@@H]1OC(C)=O , assay system PC-3.
A) 5.19

Q) State, for PC-3, measured pIC50 of the compound listed here: CC(=O)OC[C@H]1O[C@@H](NC(=O)CC(=O)NCCCc2ccc(N(CCCl)CCCl)cc2)[C@H](F)[C@@H](OC(C)=O)[C@@H]1OC(C)=O
A) 5.30
